# key: entry, value: MIC P. aeruginosa
- System: Pseudomonas aeruginosa
- procedure-details: MIC against Gram-negative bacteria: Pseudomonas aeruginosa
- Type: cell-based
- test-settings: 10 h cultivation at 37° C., 5×10^5 CFU/mL, two-fold serial dilution

Before answering, review these 4 worked examples.
>>> print(df.to_string())
                                  substance  experimental_value
0  PRT1058 (DIDECQLGEHSCGENASCTNTEGGYTCMCAGRLSEPGLICP; listed as Homo sapiens)            50 µg/mL
1  PRT1063 (ELSPCRINNGGCQDLCLLTHQGHVNCSCRGGRILQDDLTCR; listed as Homo sapiens)            50 µg/mL
2  PRT1112 (GAPVCAPSPCLHDGACRDLFDAFACACGPGWEGPRCE; listed as Homo sapiens)          12.5 µg/mL
3  PRT1078 (GTNKCRVNNGGCSSLCLATPGSRQCACAEDQVLDADGVTCL; listed as Homo sapiens)            25 µg/mL

Please indicate MIC P. aeruginosa recorded for PRT1132 (DEHICTTQSPCQNGGQCMYDGGGEYHCVCLPGFHGRDCE; listed as Homo sapiens)
50 µg/mL

Quote MIC P. aeruginosa reported for PRT1093 (RKDWCESQPCQSRGRCINLWLSYQCDCHRPYEGPNCL; listed as Homo sapiens) please.
12.5 µg/mL

====

Recorded MIC against S. marcescens, one value per entry.
- System: Serratia marcescens
- procedure-details: MIC against Gram-negative bacteria: Serratia marcescens
- Assay type: cell-based
- test-settings: Serratia marcescens; 96-well plate, 5×10^5 CFU/mL, 37° C., 10 h
Be sure to follow the number with its unit.

In [3]: df
Out[3]:
                                  substance           measurement_type  experimental_value
0  PRT1312 (LQPVCTPPCAPEAVCRAGNSCECSLGYEGDGRVCT; listed as Homo sapiens)  MIC against S. marcescens            50 µg/mL
1  PRT1281 (DLCLSSPCQNQGTCHNDPLEVYRCACPSGYKGRDCE; listed as Homo sapiens)  MIC against S. marcescens            50 µg/mL
2  PRT1200 (DIDECSEGIIECHNHSRCVNLPGWYHCECRSGFHDDGTY; listed as Homo sapiens)  MIC against S. marcescens            50 µg/mL

Turning now to a further record.
Indicate its recorded MIC against S. marcescens; the substance in question is PRT1204 (DIDECGTGRHSCANDTICFNLDGGYDCRCPHGKNCT; listed as Homo sapiens)
25 µg/mL

====

- Test system: Proteus mirabilis
- procedure-details: MIC against Gram-negative bacteria: Proteus mirabilis
- Format: cell-based
- test-settings: P. mirabilis; 10 h cultivation at 37° C.; 5×10^5 CFU/mL
- Method: 1. Gram-negative bacteria, such as E. coli BL21, Pseudomonas aeruginosa, Klebsiella pneumonia, Enterobacter cloacae, Aeromonas hydrophila, Citrobacter diversus, Moraxella catarrhalis, Proteus mirabilis, Proteus vulgaris, Serratia marcescens, etc were streaked on solid LB medium and cultured respectively. Then, typical clones were picked, inoculated into common liquid LB medium respectively, and cultured at 37° C. with shaking at 185 rpm until the McFarland specific turbidity was 0.5. […]
measurement-type: MIC (µg/mL)
Your answer should be a plain number; it is taken to be in µg/mL.

Examples with answers:
In [3]: df
Out[3]:
                                  substance  experimental_value
0  PRT419 (DIDECALPTGGHICSYRCINIPGSFQCSCPSSGYRLAPNGRNCQ; listed as Homo sapiens)                  25
1  PRT417 (DVNECQRYPGRLCGHKCENTLGSYLCSCSVGFRLSVDGRSCE; listed as Homo sapiens)                12.5
2  PRT425 (DVDECAMGTHTCQPGFLCQNTKGSFYCQARQRCMDGFLQDPEGNCV; listed as Homo sapiens)                  50

Turning now to a further substance:
Supply reported MIC belonging to this substance: PRT430 (DIDECAQGAGILCTFRCLNVPGSYQCACPEQGYTMTANGRSCK; listed as Homo sapiens)
12.5
